B1: CAMK2A (parent)
chain: CIQQILEAVLHCHQMGVVHRDLKP

# Variants of: B1
# Assay overview: protein stability index of a GFP-peptide fusion (GPS, HEK-293T) (PSI 1-6); higher = more stable;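 note: lentivirally expressed fusions sorted by FACS into six bins by GFP to DsRed ratio, PSI derived from sequencing read proportions per bin multiplied by bin number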
# Run parameters: c terminus: a fixed tail appended
Catalogue of protein stability index values

{"Sequence entry": "CIQQILEAVLHCHQMGVVHRDKKP [L22K]", "protein stability index": 2.53}
{"Sequence entry": "CIQKILEAVLHCHQMGVVHRDLKP [Q4K]", "protein stability index": 1.93}
{"Sequence entry": "CIQQILEAVLHMHQMGVVHRDLKP [C12M]", "protein stability index": 2.79}
{"Sequence entry": "CAQQILEAVLHCHQMGVVHRDLKP [I2A]", "protein stability index": 2.45}
{"Sequence entry": "CIQQILEAVLHCHFMGVVHRDLKP [Q14F]", "protein stability index": 2.94}
{"Sequence entry": "CIQQILEAVLHCHQMGVVMRDLKP [H19M]", "protein stability index": 2.59}
{"Sequence entry": "CIQQILEAELHCHQMGVVHRDLKP [V9E]", "protein stability index": 1.87}
{"Sequence entry": "CIQQILEAVLHCHQMGVVDRDLKP [H19D]", "protein stability index": 2.72}
{"Sequence entry": "CIQQILEAVLHCHQMGVVHRHLKP [D21H]", "protein stability index": 2.62}
{"Sequence entry": "CIQQELEAVLHCHQMGVVHRDLKP [I5E]", "protein stability index": 2.3}
{"Sequence entry": "CIQQIHEAVLHCHQMGVVHRDLKP [L6H]", "protein stability index": 1.77}
{"Sequence entry": "CIQQILEAVLHCHQMGVYHRDLKP [V18Y]", "protein stability index": 2.35}
{"Sequence entry": "CIQQILEAVLHCHQMGVVHRDLYP [K23Y]", "protein stability index": 3.71}
{"Sequence entry": "CIQQILEAVLHCHQMGRVHRDLKP [V17R]", "protein stability index": 3.99}
{"Sequence entry": "CIQNILEAVLHCHQMGVVHRDLKP [Q4N]", "protein stability index": 2.68}
{"Sequence entry": "CIQQILEAVLHEHQMGVVHRDLKP [C12E]", "protein stability index": 2.58}
{"Sequence entry": "CIQQILEAVLHCHQMHVVHRDLKP [G16H]", "protein stability index": 2.16}
{"Sequence entry": "CIQQILEAVLHCMQMGVVHRDLKP [H13M]", "protein stability index": 2.07}
{"Sequence entry": "CIQQILEAVLHCHQMGVVHRPLKP [D21P]", "protein stability index": 2.07}
{"Sequence entry": "CIQQILEAVLHCHQMKVVHRDLKP [G16K]", "protein stability index": 1.11}
{"Sequence entry": "CIIQILEAVLHCHQMGVVHRDLKP [Q3I]", "protein stability index": 2.81}
{"Sequence entry": "CIQQILEAVLHCHQMGVVHRDLNP [K23N]", "protein stability index": 3.36}
{"Sequence entry": "CIQQCLEAVLHCHQMGVVHRDLKP [I5C]", "protein stability index": 3.12}
{"Sequence entry": "CITQILEAVLHCHQMGVVHRDLKP [Q3T]", "protein stability index": 3.42}
{"Sequence entry": "CIQQILEAHLHCHQMGVVHRDLKP [V9H]", "protein stability index": 2.35}
{"Sequence entry": "CIQHILEAVLHCHQMGVVHRDLKP [Q4H]", "protein stability index": 2.13}
{"Sequence entry": "CIQQILMAVLHCHQMGVVHRDLKP [E7M]", "protein stability index": 4.26}
{"Sequence entry": "CIQQILEAVLHCHQMEVVHRDLKP [G16E]", "protein stability index": 3.1}
{"Sequence entry": "CIQQINEAVLHCHQMGVVHRDLKP [L6N]", "protein stability index": 1.98}
{"Sequence entry": "CIQMILEAVLHCHQMGVVHRDLKP [Q4M]", "protein stability index": 1.92}
{"Sequence entry": "TIQQILEAVLHCHQMGVVHRDLKP [C1T]", "protein stability index": 2.82}
{"Sequence entry": "CIQQILEAVLHCHQMGVVRRDLKP [H19R]", "protein stability index": 2.92}
{"Sequence entry": "CEQQILEAVLHCHQMGVVHRDLKP [I2E]", "protein stability index": 1.78}
{"Sequence entry": "CIQQILEAVDHCHQMGVVHRDLKP [L10D]", "protein stability index": 1.95}
{"Sequence entry": "CIQQILEAVAHCHQMGVVHRDLKP [L10A]", "protein stability index": 1.35}
{"Sequence entry": "CIQQILEAVLHCHQMCVVHRDLKP [G16C]", "protein stability index": 2.97}
{"Sequence entry": "CIQQILEAVLHCDQMGVVHRDLKP [H13D]", "protein stability index": 2.57}
{"Sequence entry": "CIQQILEAVLHDHQMGVVHRDLKP [C12D]", "protein stability index": 1.54}
{"Sequence entry": "CIQQILEAVKHCHQMGVVHRDLKP [L10K]", "protein stability index": 1.9}
{"Sequence entry": "CIQQILEAVLHCHQMGVEHRDLKP [V18E]", "protein stability index": 1.63}
{"Sequence entry": "CIQQILEAVLHCHQMGVVHGDLKP [R20G]", "protein stability index": 2.37}
{"Sequence entry": "CIQQILEAVLHCHAMGVVHRDLKP [Q14A]", "protein stability index": 2.29}
{"Sequence entry": "CIQQILEAVLTCHQMGVVHRDLKP [H11T]", "protein stability index": 2.39}
{"Sequence entry": "CIQQILEAVLHCHQMNVVHRDLKP [G16N]", "protein stability index": 3.04}
{"Sequence entry": "CIQQILEAVLHCHQPGVVHRDLKP [M15P]", "protein stability index": 1.81}
{"Sequence entry": "CIQQILEAVLHCHSMGVVHRDLKP [Q14S]", "protein stability index": 2.83}
{"Sequence entry": "CIQQILEAVLHCHQMGTVHRDLKP [V17T]", "protein stability index": 3.89}
{"Sequence entry": "CIQQILEAVLQCHQMGVVHRDLKP [H11Q]", "protein stability index": 1.9}
{"Sequence entry": "CIQQILEAVLHCHQMGVVKRDLKP [H19K]", "protein stability index": 2.34}
{"Sequence entry": "CIQQILFAVLHCHQMGVVHRDLKP [E7F]", "protein stability index": 2.42}
{"Sequence entry": "CIQQILEAVTHCHQMGVVHRDLKP [L10T]", "protein stability index": 2.11}
{"Sequence entry": "CIQQILEAVLHCHQMGVVYRDLKP [H19Y]", "protein stability index": 2.79}
{"Sequence entry": "CIQQIQEAVLHCHQMGVVHRDLKP [L6Q]", "protein stability index": 2.09}
{"Sequence entry": "CIQQILEAVPHCHQMGVVHRDLKP [L10P]", "protein stability index": 1.66}
{"Sequence entry": "CIQQILEAVLHCHQMGVVHRALKP [D21A]", "protein stability index": 4.17}
{"Sequence entry": "CIQQILEAVHHCHQMGVVHRDLKP [L10H]", "protein stability index": 2.19}
{"Sequence entry": "CIQQILEAVLPCHQMGVVHRDLKP [H11P]", "protein stability index": 1.69}
{"Sequence entry": "CIQQILEAVLHCHQMGVVGRDLKP [H19G]", "protein stability index": 3.33}
{"Sequence entry": "CIQQILEAVLHCHKMGVVHRDLKP [Q14K]", "protein stability index": 3.21}
{"Sequence entry": "CIQQILEAVLHNHQMGVVHRDLKP [C12N]", "protein stability index": 3.26}
{"Sequence entry": "CIQQILEAVLHCHQMGVVHRDCKP [L22C]", "protein stability index": 3.02}
{"Sequence entry": "CIQQILVAVLHCHQMGVVHRDLKP [E7V]", "protein stability index": 1.8}
{"Sequence entry": "CIQQILEAVLMCHQMGVVHRDLKP [H11M]", "protein stability index": 4.07}
{"Sequence entry": "CIQQILEAVLHCHQMGVVHIDLKP [R20I]", "protein stability index": 1.85}
{"Sequence entry": "CIQQILEAVLHHHQMGVVHRDLKP [C12H]", "protein stability index": 2.98}
{"Sequence entry": "CIQQILEAVLHCHQMGVVHRLLKP [D21L]", "protein stability index": 3.01}
{"Sequence entry": "CIQQILGAVLHCHQMGVVHRDLKP [E7G]", "protein stability index": 4.42}
{"Sequence entry": "CIQQILEAVLHCHQMGVRHRDLKP [V18R]", "protein stability index": 1.68}
{"Sequence entry": "CIQQILEAVLHCHQMGVVHRDLKR [P24R]", "protein stability index": 2.44}
{"Sequence entry": "CIQQILEAVLHCHQMGVVHRDWKP [L22W]", "protein stability index": 2.28}
{"Sequence entry": "CIQQILEAVLHCHQMQVVHRDLKP [G16Q]", "protein stability index": 3.06}
{"Sequence entry": "CIQQILEAVLHCHQMGVVHNDLKP [R20N]", "protein stability index": 1.52}
{"Sequence entry": "CIQQILEAVLHIHQMGVVHRDLKP [C12I]", "protein stability index": 2.66}
{"Sequence entry": "CIQQRLEAVLHCHQMGVVHRDLKP [I5R]", "protein stability index": 2.2}
{"Sequence entry": "CIQQILEATLHCHQMGVVHRDLKP [V9T]", "protein stability index": 2.86}
{"Sequence entry": "CIQGILEAVLHCHQMGVVHRDLKP [Q4G]", "protein stability index": 5.02}
{"Sequence entry": "CIQQILEAVLHCHQMGVVHRDPKP [L22P]", "protein stability index": 1.82}
{"Sequence entry": "CIQQILEAVWHCHQMGVVHRDLKP [L10W]", "protein stability index": 4.24}
{"Sequence entry": "CIQQDLEAVLHCHQMGVVHRDLKP [I5D]", "protein stability index": 2.65}
{"Sequence entry": "CIQQILEAVLHCHQMGVNHRDLKP [V18N]", "protein stability index": 2.84}
{"Sequence entry": "CIQQILEAVLHCHQMGVVHRDSKP [L22S]", "protein stability index": 2.34}
{"Sequence entry": "CIQQILEAVLNCHQMGVVHRDLKP [H11N]", "protein stability index": 2.4}
{"Sequence entry": "CIQQILEDVLHCHQMGVVHRDLKP [A8D]", "protein stability index": 2.04}
{"Sequence entry": "CIQQILEAVLHVHQMGVVHRDLKP [C12V]", "protein stability index": 2.82}
{"Sequence entry": "CIGQILEAVLHCHQMGVVHRDLKP [Q3G]", "protein stability index": 3.91}
{"Sequence entry": "CIQQILEAVLHCHQMGVVHFDLKP [R20F]", "protein stability index": 1.97}
{"Sequence entry": "CIQQILEAVLHCHQMGVVLRDLKP [H19L]", "protein stability index": 1.9}
{"Sequence entry": "CIQQILEAVLHPHQMGVVHRDLKP [C12P]", "protein stability index": 1.53}
{"Sequence entry": "CIQQILECVLHCHQMGVVHRDLKP [A8C]", "protein stability index": 2.57}
{"Sequence entry": "CIQQILEAVLHCHQMGVTHRDLKP [V18T]", "protein stability index": 2.33}
{"Sequence entry": "CIQQILEAVLHCHQMGVVHRTLKP [D21T]", "protein stability index": 2.36}
